Read-out: Insulin Like Growth Factor 1 (IGF1), IGF1 (gene 3479)
Protocol Description: LTEA_HepaRG_IGF1: Life Technologies and Expression Analysis (LTEA) Assay for Insulin Like Growth Factor 1 (IGF1) using HepaRG (AID 2283506)
Test Settings: mRNA level, 48 h; actives raise or lower the signal
Activity calls are given as the source filed them. The calls were made as follows: active = hit-call score of the fitted dose curve at least 0.9, where 1 is the maximum; inactive = score below 0.9.
Outcomes you can answer with include only these: active, inactive

Example entries begin here.
| Compound | Answer Label |
| --- | --- |
| NC(=O)NO | active |
| CCN(C(=O)c1cc(C)cc(OC[C@H](C)Nc2ccncc2)c1)C(C)C | active |

Lab log entry: COC(=O)c1ccccc1O — outcome as called in the assay?
inactive

Call for entry CCCCCCCCCCCCc1ccccc1 :
inactive

Could you check what this test reported for CCCN(C1CCN(C(=O)C2CCNCC2)CC1)[C@@H]1CCc2ccc(OC)cc2C1 ?
active

Please state the recorded outcome for this compound: C[C@](N)(Cc1ccc(O)c(O)c1)C(=O)O
inactive

Which outcome was entered for the compound CC(C)=CCC/C(C)=C/CO in this test?
inactive

Dear colleague, could you share the recorded outcome for CN(C)c1ccc(N=NS(=O)(=O)O)cc1 when you have a moment?
active

Answer briefly: the call reported for Cc1ccc(O)cc1 in this assay.
inactive

Look up the recorded call for CC(C)CCCCCCCOC(=O)CCCCC(=O)OCCCCCCCC(C)C in this test.
inactive

What did the test return for C=CC(=C)CCC=C(C)C ?
inactive

* * *

Protocol Description: APR_HepG2_CellLoss_24hr: Apredica 24-hour HepG2 Assay for Cell Loss (AID 2282908)
Test Settings: high-content imaging
The source made the active and inactive calls. How the source made its calls: active means hit-call score of the fitted dose curve at least 0.9, where 1 is the maximum; inactive means score below 0.9.
Your answer must be one of the following: true (1) for active, false (0) for inactive

| Molecule | Answer Label |
| --- | --- |
| Oc1ccc2c(c1)-c1ccccc1C2 | true (1) |
| C1N2CN3CN1CN(C2)C3 | false (0) |
| Cn1c(=O)cc(Oc2ccc(F)cc2F)c2cnc(NCC(C)(C)O)nc21 | false (0) |
| CCCCC(CC)COC(=O)c1ccc(C(=O)OCC(CC)CCCC)cc1 (centres undefined) | false (0) |
| O=C(CCCCCCCCc1cccnc1)N1CCC(C=C(c2ccccc2)c2ccccc2)CC1 | false (0) |
| O=C(O)CCN(C1(C(=O)NO)CCCC1)S(=O)(=O)c1ccc(Oc2ccc(F)cc2)cc1 | false (0) |
| CC[C@H]1OC(=O)[C@H](C)[C@@H](O[C@H]2C[C@@](C)(OC)[C@@H](O)[C@H](C)O2)[C@H](C)[C@@H](O[C@@H]2O[C@H](C)C[C@H](N(C)C)[C@H]2O)[C@](C)(O)C[C@@H](C)C(=O)[C@H](C)[C@@H](O)[C@]1(C)O | false (0) |
| CC[C@H]1CC[C@H](NCc2cc3c(cc2OC)[C@H]2C[C@H]2C(=O)N3C)[C@H](c2ccccc2)N1 | false (0) |

We now examine a further molecule.
Record lookup: outcome of this test for CC(C)=CCCC(C)CCO (centres undefined) ?
false (0)

* * *

Protocol Description: Tanguay_ZF_120hpf_YSE_legacy: (Legacy) Oregon State University Tanguay Lab 120 Hour Post-fertilization zebrafish Assay for Yolk Sac Edema (AID 2283634)
Records with an inconclusive call do not appear. Calls of active or inactive are those of the source. How the source made its calls: active means hit-call score of the fitted dose curve at least 0.9, where 1 is the maximum; inconclusive means response in the unintended direction; inactive means score below 0.9.
Form entry, call: pick from active, inactive

Answered cases to consult:
| Compound | Answer Label |
| --- | --- |
| C=CCCCCCCCCC(=O)O | inactive |
| CCOc1cccc(-n2cc(C(=O)N3CCN(c4cc(C(=O)O)c5ccccc5c4)CC3)nc2-c2ccc(C)cc2)c1 | inactive |
| CC/C(=C\C(=N/O)C(N)=O)C(C)[N+](=O)[O-] (centres undefined) | inactive |
| O=C1CCC(N2C(=O)c3ccccc3C2=O)C(=O)N1 (centres undefined) | inactive |

Test call for this compound, please: CC(C)=CCC/C(C)=C/CO
inactive

Identify the outcome logged in this assay for the compound shown: CC(C)CCO
inactive
